This collection of values is drawn from ChEMBL document CHEMBL4513216.

Experiment: Toxicity liver stage against HepG2, at 10uM
Type: cell-based
Set-up: test concentration 10 uM, cell line HepG2-A16-CD81EGFP
Details: human, HepG2-A16-CD81EGFP cells; read-out: INHIBITION
# cytotoxicity at 10 µM values compiled below
Report the figure in % without appending any unit label.

Known results for molecules:
1) O=C(c1cc(Br)ccc1Cl)N1CCN(Cc2ccco2)CC1 ... -49.4
2) O=S(=O)(C1CC1)N1CCn2c(Cn3cncn3)cnc2C1 ... 12.2
3) c1cncc(CN2CCCC(c3nnc(-c4cnccn4)o3)C2)c1 (stereo unspecified) ... -7.36
4) Cc1cc(C(F)(F)F)cc(N2C[C@@H](CN(C)CCO)[C@@H](CO)C2)n1 ... -14.4
5) Cn1nc(CO)c2c1CCN(c1ncnc3c1CCNC3)C2 ... -0.132
6) CNc1cc(C2CN(CC(=O)N(C)C)CCO2)nc(C)n1 (stereo unspecified) ... -14.4

Now look at this one.
What measured cytotoxicity at 10 µM goes with "O=C(Nc1cccnc1)[C@@H]1C[C@H]2OCC[C@H]2N(Cc2ccsc2)C1" ?
2.88
